Quick reference: Ki of the listed items.
- Target Or Test System: Aurora-2 (Aurora A) (Homo sapiens, UniProt O14965)
- Sequence (O14965 whole entry): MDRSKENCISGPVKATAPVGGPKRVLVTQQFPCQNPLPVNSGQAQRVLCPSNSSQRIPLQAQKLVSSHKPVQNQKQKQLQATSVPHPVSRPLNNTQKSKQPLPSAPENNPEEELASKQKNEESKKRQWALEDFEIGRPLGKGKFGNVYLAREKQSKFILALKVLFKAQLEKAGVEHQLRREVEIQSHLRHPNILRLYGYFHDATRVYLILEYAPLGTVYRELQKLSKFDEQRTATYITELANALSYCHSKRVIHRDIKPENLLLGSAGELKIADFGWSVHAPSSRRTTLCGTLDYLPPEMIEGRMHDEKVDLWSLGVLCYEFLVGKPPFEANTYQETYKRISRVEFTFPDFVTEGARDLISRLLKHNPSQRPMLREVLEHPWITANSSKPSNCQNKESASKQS
- Assay Procedure: Aurora-2 (Aurora A) inhibition assay, coupled enzyme
- Type: biochemical
- Experimental Parameters: read-out: Aurora A kinase Ki value

Sample records with Ki:
Cc1cc(Nc2cc(N3CCC3)nc(Sc3ccc(C(=O)Nc4ccccc4Cl)cc3)n2)[nH]n1 [Compound 48]: 1 to 5 nM
Cc1cc(Nc2cc(N3CCC3)nc(Sc3ccc(NC(=O)CCC(F)(F)F)cc3)n2)[nH]n1 [Compound 121]: 1 to 5 nM
CC(=O)Nc1ccc(Nc2nc(Nc3cc(C)n[nH]3)cc(N3CC(F)(C4CC4)C3)n2)cc1 [Compound 201]: 5 to 200 nM

Record Cc1cc(Nc2cc(N3CCC3)nc(Sc3ccc(NC(=O)C4CC4(F)F)cc3)n2)[nH]n1 (centres unmarked) [Compound 112] : what is its Ki with Aurora-2 (Aurora A) (Homo sapiens, UniProt O14965)?
1 to 5 nM

Form: Entry = Cc1cnc(Nc2cc(N3CC(O)C3)nc(Sc3ccc(NC(=O)C4CC4)cc3)n2)s1 [Compound 3] | System = Aurora-2 (Aurora A) (Homo sapiens, UniProt O14965) | Ki = ____
1 to 5 nM

Missing value: Ki, Aurora-2 (Aurora A) (Homo sapiens, UniProt O14965), entry O=C(CC(F)(F)F)Nc1ccc(Sc2nc(Nc3cc[nH]n3)cc(N3CC(F)(C4CC4)C3)n2)cc1 [Compound 148] . Fill in?
1 to 5 nM

Report Ki for Cc1cc(Nc2cc(N3CCC3)nc(Sc3ccc(NC(=O)c4sc(C)nc4C)cc3)n2)n[nH]1 [Compound 41] tested on Aurora-2 (Aurora A) (Homo sapiens, UniProt O14965).
5 to 200 nM

Please state recorded Ki (tested on Aurora-2 (Aurora A) (Homo sapiens, UniProt O14965)) of CCC(Nc1ccc(Sc2nc(Nc3cc(C)n[nH]3)cc(N3CC(O)(C4CC4)C3)n2)cc1)C(F)(F)F (centres unmarked) [Compound 136]
≤ 1 nM

---

Each record here notes measured Ki.
- Target Or Test System: FLT-3 (Homo sapiens, UniProt P36888)
- Sequence (P36888 27-993, species assumed): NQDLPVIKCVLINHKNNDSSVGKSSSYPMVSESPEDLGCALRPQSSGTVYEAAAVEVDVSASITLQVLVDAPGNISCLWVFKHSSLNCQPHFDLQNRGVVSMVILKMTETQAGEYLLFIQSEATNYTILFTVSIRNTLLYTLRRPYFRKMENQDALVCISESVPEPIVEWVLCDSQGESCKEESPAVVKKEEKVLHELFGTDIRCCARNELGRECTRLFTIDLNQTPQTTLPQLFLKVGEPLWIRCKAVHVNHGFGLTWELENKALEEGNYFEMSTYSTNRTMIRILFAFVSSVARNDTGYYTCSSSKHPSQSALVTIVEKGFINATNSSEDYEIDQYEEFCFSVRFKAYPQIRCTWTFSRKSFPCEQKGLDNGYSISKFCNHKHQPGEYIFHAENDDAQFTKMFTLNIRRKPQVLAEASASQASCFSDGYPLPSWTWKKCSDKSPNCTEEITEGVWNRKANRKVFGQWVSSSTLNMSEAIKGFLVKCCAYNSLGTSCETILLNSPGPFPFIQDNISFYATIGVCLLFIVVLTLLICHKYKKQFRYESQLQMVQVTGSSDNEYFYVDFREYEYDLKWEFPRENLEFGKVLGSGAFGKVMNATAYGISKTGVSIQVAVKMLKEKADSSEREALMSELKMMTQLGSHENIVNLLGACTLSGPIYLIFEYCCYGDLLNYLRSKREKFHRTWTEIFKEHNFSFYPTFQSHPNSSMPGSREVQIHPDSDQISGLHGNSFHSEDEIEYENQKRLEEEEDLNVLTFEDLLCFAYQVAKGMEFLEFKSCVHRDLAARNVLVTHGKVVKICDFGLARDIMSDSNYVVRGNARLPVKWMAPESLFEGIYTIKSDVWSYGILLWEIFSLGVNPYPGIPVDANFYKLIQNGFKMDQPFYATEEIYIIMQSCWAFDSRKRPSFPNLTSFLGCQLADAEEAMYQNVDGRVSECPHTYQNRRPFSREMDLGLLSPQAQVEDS
- Assay Procedure: FLT-3 inhibition assay, radiometric filter-binding
- Assay type: biochemical

Worked examples, 3 compounds total:
Cc1cc(Nc2cc(N3CC(OC(C)(C)C)C3)nc(Sc3ccc(NC(=O)c4ccccc4Cl)cc3)n2)[nH]n1: 150 to 1000 nM
CC1=NN=C(Nc2cc(N3CCC3)nc(Sc3ccc(NC(=O)C4CCCN4C)cc3)n2)C1 (stereo not shown): 150 to 1000 nM
Cc1cc(Nc2cc(N3CC(OC(C)C)C3)nc(Sc3ccc(NC(=O)c4ccccc4Cl)cc3)n2)n[nH]1: 150 to 1000 nM

Can you share its Ki? I mean this compound: "CCOC1CN(c2cc(Nc3cc(C)[nH]n3)nc(Sc3ccc(NC(=O)c4ccccc4Cl)cc3)n2)C1"
50 to 150 nM

What does the record list as Ki for "CC(C)=C1CN(c2cc(Nc3cc(C)n[nH]3)nc(Sc3ccc(NC(=O)CC(F)(F)F)cc3)n2)C1" ?
50 to 150 nM

Need Ki of "Cc1cc(Nc2cc(N3CCC3)nc(Sc3ccc(C(=O)NCc4ccccc4Cl)cc3)n2)n[nH]1" , thanks.
150 to 1000 nM

Need Ki of "CCCNC(=O)Nc1ccc(Sc2nc(Nc3cc(C)[nH]n3)cc(N3CCC3)n2)cc1" , thanks.
50 to 150 nM

Attribution: patent US8637511B2
